- Test system: HCC 2998
- Experimental Details: NCI tumour cell line growth inhibition, 48 h
Activity calls are given as the source filed them. No stated cut-off is given here; in the data, active = GI50 up to about 1.1 µM and inactive = higher.
Endpoint: GI50

Q: Given the compound C/C=C/C=C/C1=NN(c2cccc(S(=O)(=O)O)c2)C2(C1)C(Cl)C(=O)N2c1nc2ccccc2s1 (stereo not drawn) , what is its reported GI50?
Result: 16.9 µM (inactive)

Q: Now the same for N#CCCC1C(C#N)C2(Cl)CC1(Cl)C(Cl)=C2Cl (stereo not drawn)
Result: > 10 µM (inactive)

Q: Could you do the same for CC1=CCC[C@@]2(C)C(CC[C@@H]2C(C)/C=C/C(C)C)c2ccc(cc2C(=O)O)C[C@@H](O)CC1 (stereo partly drawn) , please?
Result: 9.93 µM (inactive)

Q: Ok, now Clc1ccc2c(c1)-c1c3c(nn1-c1ccccc1)-c1ccccc1SC3O2 (stereo not drawn)
Result: > 100 µM (inactive)

Q: Try this compound too: S=C=NCc1ccccc1 [BENZYL ISOTHIOCYANATE]
Result: 8.28 µM (inactive)

Q: How about this compound: `COC(=O)[C@H](Cc1ccccc1)NC(=O)N1CCN(C(=O)N[C@@H](Cc2ccccc2)C(=O)OC)CCN(C(=O)N[C@@H](Cc2ccccc2)C(=O)OC)CC1`
Result: > 100 µM (inactive)

Q: Note, next up: CSc1nc2c(nc(N)n2C2OC(COC(C)=O)C(OC(C)=O)C(OC(C)=O)C2OC(C)=O)c(=O)n1C (stereo not drawn)
Result: > 100 µM (inactive)

Q: Then `CCc1cccc(C(C)C)c1NC1=C([n+]2ccc(C)cc2)C(=O)c2ccccc2C1=O.[O-][Cl+3]([O-])([O-])[O-]` ?
Result: 3.21 µM (inactive)
